B1: TPR t1 (parent)
chain: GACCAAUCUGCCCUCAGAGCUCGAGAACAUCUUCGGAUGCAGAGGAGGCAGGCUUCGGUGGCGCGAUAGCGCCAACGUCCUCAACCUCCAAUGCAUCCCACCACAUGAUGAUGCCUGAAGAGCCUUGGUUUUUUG

- Variants of: B1
- ASSAY: polymerase ribozyme fitness, log enrichment relative to wild type (log ratio); higher = more active; in vitro selection for triplet polymerase activity
// reported polymerase ribozyme fitness (log ratio) per item
Form field (numeric): enter value without unit.

The cases that follow already have their polymerase ribozyme fitness (log ratio) on record.
INSERT INTO assay_data (mutation_id, meas_value) VALUES
  ('A5G A18U G42U G52C G69C', -3.05),
  ('C89U C123U', 0.813),
  ('C12G A27C', -2.38),
  ('G61C C88A', -2.91),
  ('C8A C79G', -1.65);

Here is the next item to consider.
Form field polymerase ribozyme fitness (log ratio), entry A2G C79A : -0.844
